This section presents binders with their documented OD450 values.
Molecular target: T1, human MSLN-R1-his protein (human, UniProt Q13421 296-390)
T1 construct: Region 1 of human mesothelin, made in HEK293E cells, His-tagged; also called human MSLN-R1 protein; hMSLN-R1-his; not shown: His tag
T1 chain: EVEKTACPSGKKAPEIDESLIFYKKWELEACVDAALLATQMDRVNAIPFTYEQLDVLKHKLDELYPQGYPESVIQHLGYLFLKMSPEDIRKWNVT
Assay: ELISA on coated MSLN-R1; antibody 0.0001 nM

| binder | output-unit | OD450 |
| --- | --- | --- |
| S009-F8-13.8 (antibody, human IgG1, kappa, V domains shown) VH: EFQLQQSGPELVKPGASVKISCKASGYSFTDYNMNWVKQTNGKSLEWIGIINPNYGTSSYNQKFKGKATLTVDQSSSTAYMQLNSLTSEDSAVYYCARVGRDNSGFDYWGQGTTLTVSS VL: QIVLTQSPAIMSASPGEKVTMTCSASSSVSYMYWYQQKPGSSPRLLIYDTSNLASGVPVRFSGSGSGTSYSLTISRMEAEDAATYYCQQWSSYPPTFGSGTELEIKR | OD450 | 0.05 |
| S009-F8-8.22 (antibody, human IgG1, kappa, V domains shown) VH: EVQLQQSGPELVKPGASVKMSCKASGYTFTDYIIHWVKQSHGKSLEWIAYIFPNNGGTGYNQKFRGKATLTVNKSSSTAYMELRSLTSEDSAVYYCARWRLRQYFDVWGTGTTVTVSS VL: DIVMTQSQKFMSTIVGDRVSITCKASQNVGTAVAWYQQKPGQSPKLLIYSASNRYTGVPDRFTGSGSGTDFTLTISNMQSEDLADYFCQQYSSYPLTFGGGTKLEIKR | OD450 | 0.08 |
